# Organism: Homo sapiens
# assayInfo: In vitro inhibition of histamine release from human basophils
# Format: functional, organism-based
# reportedConditions: Homo sapiens
Kindly supply the reported pIC50 values for the records listed here.
By convention, pIC50 is the negative base-10 log of a molar concentration.

Entry CN(C)c1cccc(Nc2nccc(-c3ccccn3)n2)c1 , pIC50 reported as 6.40

Per the records, this molecule ( NS(=O)(=O)c1ccc(Nc2nccc(-c3cccnc3)n2)cc1 ) has pIC50 equal to 6.70

pIC50 for CCc1ccc(Nc2nccc(-c3ccncc3)n2)cc1 is 5.11

The reported value for CC(=O)c1ccc(Nc2nccc(-c3cccnc3)n2)cc1 in terms of pIC50 is 6.10
